measured target: RET (V804M) (Homo sapiens, UniProt P07949, V804M)
Sequence (P07949 29-1114 V804M): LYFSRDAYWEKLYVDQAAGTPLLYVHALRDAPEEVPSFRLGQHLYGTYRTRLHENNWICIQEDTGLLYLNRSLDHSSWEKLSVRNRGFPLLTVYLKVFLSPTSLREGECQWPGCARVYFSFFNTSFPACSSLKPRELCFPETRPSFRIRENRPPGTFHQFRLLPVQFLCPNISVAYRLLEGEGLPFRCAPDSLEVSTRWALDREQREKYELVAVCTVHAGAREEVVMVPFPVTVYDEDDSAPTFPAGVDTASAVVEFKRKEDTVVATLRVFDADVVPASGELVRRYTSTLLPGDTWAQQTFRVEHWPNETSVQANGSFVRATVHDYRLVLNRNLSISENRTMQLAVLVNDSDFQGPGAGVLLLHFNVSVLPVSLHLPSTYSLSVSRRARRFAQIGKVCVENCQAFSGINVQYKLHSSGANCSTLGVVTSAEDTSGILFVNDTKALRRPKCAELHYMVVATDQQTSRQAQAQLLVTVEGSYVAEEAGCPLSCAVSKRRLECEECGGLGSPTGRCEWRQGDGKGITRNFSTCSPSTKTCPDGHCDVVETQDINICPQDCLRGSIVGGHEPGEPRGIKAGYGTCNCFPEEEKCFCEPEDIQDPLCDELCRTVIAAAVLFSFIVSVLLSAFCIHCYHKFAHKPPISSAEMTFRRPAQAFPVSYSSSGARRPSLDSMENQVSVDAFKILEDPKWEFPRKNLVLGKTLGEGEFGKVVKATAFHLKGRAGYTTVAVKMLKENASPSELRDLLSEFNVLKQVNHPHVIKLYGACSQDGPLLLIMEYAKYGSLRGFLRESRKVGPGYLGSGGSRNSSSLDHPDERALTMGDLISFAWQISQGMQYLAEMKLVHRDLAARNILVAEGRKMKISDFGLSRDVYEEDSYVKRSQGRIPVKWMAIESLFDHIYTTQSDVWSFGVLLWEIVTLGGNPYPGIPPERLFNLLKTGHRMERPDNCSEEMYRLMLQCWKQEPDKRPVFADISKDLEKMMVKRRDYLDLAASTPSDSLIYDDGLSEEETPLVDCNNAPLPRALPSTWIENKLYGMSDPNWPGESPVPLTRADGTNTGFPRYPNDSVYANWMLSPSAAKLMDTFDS
test details: In vitro enzyme activity test, RET (V804M) kinase
condition parameters: ATP 30 μM
assay readout: pIC50
Answers are plain numbers, as −log10 of the molar value.

pIC50 for "COc1ccc(CN2C3CC2CN(c2cnc(-c4cc(C5=CCOCC5)cn5ncc(C#N)c45)cn2)C3)cn1" ?
8.23

* * *

test details: Pharmacokinetic evaluation in mice (IV and PO)
Format: in vivo
condition parameters: mouse, plasma; PO 2 mg/kg, female Balb/c mice
assay readout: Tmax

Tmax for "COc1ccc(CN2C3CC2CN(c2cnc(-c4cc(C5=CCOCC5)cn5ncc(C#N)c45)cn2)C3)cn1" ?
2 h

* * *

test details: Pharmacokinetic evaluation in mice (IV and PO)
Type: in vivo
condition parameters: mouse, plasma; PO 2 mg/kg, female Balb/c mice
assay readout: Cmax (µM)
Give bare numbers, in µM.

Cmax for "COc1ccc(CN2C3CC2CN(c2cnc(-c4cc(C5=CCOCC5)cn5ncc(C#N)c45)cn2)C3)cn1" ?
5.34

* * *

test details: Pharmacokinetic evaluation in mice (IV and PO)
Type: in vivo
condition parameters: mouse, plasma; IV 0.2 mg/kg, female Balb/c mice; read-out: Vdss (apparent steady-state distribution volume)
Experimental: Experimental procedure: A 0.1 mg/mL clear solution of the test compound in the corresponding solvent medium (see Table 22) was injected into female Balb/c mice (fasting overnight, 7-9 weeks old) via tail vein at a dose of 0.2 mg/kg. […] The plasma concentration was determined by LC-MS/MS method, and the relative pharmacokinetic parameters were calculated using WinNonlin™ Version 6.3 (Pharsight, Mountain View, CA) pharmacokinetic software by non-compartment model linear logarithmic trapezoidal method. […]
assay readout: Vd (L/kg)
Give bare numbers, in L/kg.

Vd for "COc1ccc(CN2C3CC2CN(c2cnc(-c4cc(C5=CCOCC5)cn5ncc(C#N)c45)cn2)C3)cn1" ?
0.5

* * *

measured target: UniProt P07949
assay readout: IC50 (nM)
Give bare numbers, in nM.

IC50 for "COc1ccc(CN2C3CC2CN(c2cnc(-c4cc(C5=CCOCC5)cn5ncc(C#N)c45)cn2)C3)cn1" ?
0.72
